Molecular target: Rhodesain (Trypanosoma brucei rhodesiense)
Assay: Inhibition of Trypanosoma brucei rhodesiense rhodesain at 0.1 uM using Cbz-Phe-Arg-AMC as fluorogenic substrate measured for 10 mins every 30 seconds by fluorescence microplate reader assay
Measurement label: inhibition

Ask | Report measured inhibition; entry is CC(=O)/C=C/[C@H](CCc1ccccc1)NC(=O)[C@H](Cc1ccccc1)NC(=O)Nc1c(F)cccc1F
Reply | > 80%

Ask | Report measured inhibition; entry is CC(=O)/C=C/[C@H](CCc1ccccc1)NC(=O)[C@H](Cc1ccccc1)NC(=O)Nc1ccccc1
Reply | > 80%

Ask | Report measured inhibition; entry is COc1ccc(NC(=O)N[C@@H](Cc2ccccc2)C(=O)N[C@H](/C=C/C(C)=O)CCc2ccccc2)cc1
Reply | > 80%

Ask | Report measured inhibition; entry is CC(=O)/C=C/[C@H](CCc1ccccc1)NC(=O)[C@H](Cc1ccccc1)NC(=O)Nc1ccc(Cl)cc1C(F)(F)F
Reply | > 80%

###

System: Trypanosoma brucei
Assay: Antitrypanosomal activity against bloodstream form of Trypanosoma brucei
Type: functional
Details: read-out: ED50 (the source's name)
Measurement label: EC50 (nM)
State the answer as a number, implicitly in nM.

Ask | Report measured EC50; entry is CN1CCN(C(=O)N[C@@H](Cc2ccccc2)C(=O)N[C@H](/C=C/S(=O)(=O)c2ccccc2)CCc2ccccc2)CC1
Reply | 900

###

Molecular target: Rhodesain (Trypanosoma brucei rhodesiense)
Test: Binding affinity to recombinant Trypanosoma brucei rhodesiense rhodesain assessed as Kinact using Cbz-Phe-Arg-AMC as fluorogenic substrate measured for 10 mins every 30 seconds by fluorescence microplate reader assay
Label Met when Kinact is strictly below 0.005 min⁻¹; otherwise label Not met.

Ask | I wonder whether CC(=O)/C=C/[C@H](CCc1ccccc1)NC(=O)[C@H](Cc1ccccc1)NC(=O)Nc1ccc(Cl)cc1 has Kinact below 0.005 min⁻¹. Can you tell?
Reply | Met

Ask | I wonder whether CC(=O)/C=C/[C@H](CCc1ccccc1)NC(=O)[C@H](Cc1ccccc1)NC(=O)Nc1ccc(Cl)cc1C has Kinact below 0.005 min⁻¹. Can you tell?
Reply | Not met

Ask | I wonder whether CC(=O)/C=C/[C@H](CCc1ccccc1)NC(=O)[C@H](Cc1ccccc1)NC(=O)Nc1cccc2ccccc12 has Kinact below 0.005 min⁻¹. Can you tell?
Reply | Not met

Ask | I wonder whether CC(=O)/C=C/[C@H](CCc1ccccc1)NC(=O)[C@H](CC(C)C)NC(=O)Nc1ccc(C)cc1 has Kinact below 0.005 min⁻¹. Can you tell?
Reply | Met

Ask | I wonder whether CC(=O)/C=C/[C@H](CCc1ccccc1)NC(=O)[C@H](Cc1ccccc1)NC(=O)Nc1ccc(C)cc1 has Kinact below 0.005 min⁻¹. Can you tell?
Reply | Met

Ask | I wonder whether CC(=O)/C=C/[C@H](CCc1ccccc1)NC(=O)[C@H](Cc1ccccc1)NC(=O)Nc1ccccc1 has Kinact below 0.005 min⁻¹. Can you tell?
Reply | Met

Ask | I wonder whether CC(=O)/C=C/[C@H](CCc1ccccc1)NC(=O)[C@H](Cc1ccccc1)NC(=O)Nc1c(F)cccc1F has Kinact below 0.005 min⁻¹. Can you tell?
Reply | Met

Ask | I wonder whether COc1ccc(NC(=O)N[C@@H](Cc2ccccc2)C(=O)N[C@H](/C=C/C(C)=O)CCc2ccccc2)cc1 has Kinact below 0.005 min⁻¹. Can you tell?
Reply | Not met
